assayed system: KRas^G12V (Homo sapiens, UniProt P01116, G12V)
Construct: […]; biotin (biotinylated)
Sequence (P01116 1-169 isoform P01116-2 G12V): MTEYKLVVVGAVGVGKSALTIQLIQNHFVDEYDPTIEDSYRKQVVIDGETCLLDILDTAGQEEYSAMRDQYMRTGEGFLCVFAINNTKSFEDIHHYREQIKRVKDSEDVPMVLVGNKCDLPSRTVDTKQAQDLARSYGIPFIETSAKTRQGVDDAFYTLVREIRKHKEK
test summary: KRas binding assay (TR-FRET displacement of Cy5 labelled tracer)
pIC50: −log10 of the molar value.

- compound: "CN1CCC[C@H]1COc1nc2c(c(N3CCCC4(C3)NC(=O)NC4=O)n1)CCN(c1cccc3cccc(Cl)c13)C2 (stereo partly drawn)"
  pIC50: 7.42
- compound: "CCc1c(F)ccc2cc(O)cc(N3CCc4c(nc(OC[C@@]56CCCN5C[C@H](F)C6)nc4N4CCOCC(O)C4)C3)c12 (stereo partly drawn)"
  pIC50: "≥ 8.70"
- compound: "CCc1c(F)ccc2cc(O)cc(N3CCc4c(nc(OC[C@@H]5CCCN5C)nc4N4CCCn5nc(C(=O)N(C)C)cc5C4)C3)c12"
  pIC50: "≥ 8.70"

* * *

assayed system: KRas^G12S (Homo sapiens, UniProt P01116, G12S)
Construct: […]; biotin (biotinylated)
Sequence (P01116 1-169 isoform P01116-2 G12S): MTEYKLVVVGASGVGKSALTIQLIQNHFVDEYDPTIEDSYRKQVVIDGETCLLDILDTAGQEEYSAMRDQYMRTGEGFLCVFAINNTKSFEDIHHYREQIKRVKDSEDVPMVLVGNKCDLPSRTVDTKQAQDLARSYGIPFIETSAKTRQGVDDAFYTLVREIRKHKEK
test summary: KRas binding assay (TR-FRET displacement of Cy5 labelled tracer)
pIC50: −log10 of the molar value.

- compound: "CCc1cccc2cccc(N3CCc4c(nc(OCC56CCCN5CCC6)nc4N4CCCC(c5ccn(C)n5)C4)C3)c12 (stereo not shown)"
  pIC50: 5.85
- compound: "CCc1cccc2cccc(N3CCc4c(nc(OCC56CCCN5CCC6)nc4NC4CCNC(=O)C4)C3)c12 (stereo not shown)"
  pIC50: 5.38
- compound: "CCc1cccc2cccc(N3CCc4c(nc(OCC56CCCN5CCC6)nc4N4CCOC5(CCSC5)C4)C3)c12 (stereo not shown)"
  pIC50: 5.89
- compound: "CCc1cccc2cccc(N3CCc4c(nc(OCC56CCCN5CCC6)nc4NC4CN(C(N)=O)C4)C3)c12"
  pIC50: 5.67
- compound: "CCc1cccc2cccc(N3CCc4c(nc(OCC56CCCN5CCC6)nc4N4CCC(CO)C(O)C4)C3)c12 (stereo not shown)"
  pIC50: 6.52
- compound: "CCc1cccc2cccc(N3CCc4c(nc(OCC56CCCN5CCC6)nc4N4CCC(O)C(CO)C4)C3)c12 (stereo not shown)"
  pIC50: 6.21
- compound: "CCc1cccc2cccc(N3CCc4c(nc(OCC56CCCN5CCC6)nc4NC4CCc5ncsc5C4)C3)c12 (stereo not shown)"
  pIC50: 5.02

* * *

assayed system: KRas^G12V (Homo sapiens, UniProt P01116, G12V)
Construct: […]; biotin (biotinylated)
test summary: KRas binding assay (TR-FRET displacement of Cy5 labelled tracer)
IC50 listing for selected compounds.
readout name: IC50

- compound: "CCc1cccc2cccc(N3CCc4c(nc(OCC56CCCN5CCC6)nc4N4CCCCC(CO)C4)C3)c12 (centres unmarked)"
  assayed system: "KRas^G12V (Homo sapiens, UniProt P01116, G12V)"
  test value: "0.204 µM"
- compound: "O=C1NCC2(CCCN(c3nc(OC[C@@]45CCCN4C[C@H](F)C5)nc4c3CCN(c3cc(O)cc5ccc(F)c(Br)c35)C4)C2)N1 (some centres unmarked)"
  assayed system: "KRas^G12V (Homo sapiens, UniProt P01116, G12V)"
  test value: "≤ 0.002 µM"
- compound: "CN1CCC[C@H]1COc1nc2c(c(N3CCCC4(CC(=O)N4)C3)n1)CCN(c1cccc3cccc(Cl)c13)C2 (some centres unmarked)"
  assayed system: "KRas^G12V (Homo sapiens, UniProt P01116, G12V)"
  test value: "0.404 µM"
- compound: "CCc1cccc2cccc(N3CCc4c(nc(OCC56CCCN5CCC6)nc4Nc4cnn(CC(N)=O)c4)C3)c12"
  assayed system: "KRas^G12V (Homo sapiens, UniProt P01116, G12V)"
  test value: "1.17 µM"
- compound: "CCc1c(F)ccc2cc(O)cc(N3CCc4c(nc(OC[C@@]56CCCN5C[C@H](F)C6)nc4N4CCCc5ncccc5C4)C3)c12"
  assayed system: "KRas^G12V (Homo sapiens, UniProt P01116, G12V)"
  test value: "0.008 µM"
- compound: "CCc1c(F)ccc2cc(O)cc(N3CCc4c(nc(OC[C@@]56CCCN5C[C@H](F)C6)nc4N4CCCn5nc(C(=O)N(C)C)c(C)c5C4)C3)c12"
  assayed system: "KRas^G12V (Homo sapiens, UniProt P01116, G12V)"
  test value: "0.052 µM"
- compound: "CCc1cccc2cccc(N3CCc4c(nc(OCC56CCCN5CCC6)nc4N4CCCC(n5cccn5)C4)C3)c12 (centres unmarked)"
  assayed system: "KRas^G12V (Homo sapiens, UniProt P01116, G12V)"
  test value: "0.958 µM"
- compound: "CCc1cccc2cccc(N3CCc4c(nc(OCC56CCCN5CCC6)nc4NCC4(C)CSC4)C3)c12"
  assayed system: "KRas^G12V (Homo sapiens, UniProt P01116, G12V)"
  test value: "8.8 µM"
- compound: "CCc1cccc2cccc(N3CCc4c(nc(OCC56CCCN5CCC6)nc4N4CC(C)CC(C(N)=O)C4)C3)c12 (centres unmarked)"
  assayed system: "KRas^G12V (Homo sapiens, UniProt P01116, G12V)"
  test value: "0.368 µM"
- compound: "CCc1cccc2cccc(N3CCc4c(nc(OCC56CCCN5CCC6)nc4NCc4nnc(N)o4)C3)c12"
  assayed system: "KRas^G12V (Homo sapiens, UniProt P01116, G12V)"
  test value: "0.868 µM"
- compound: "CN1CCC[C@H]1COc1nc2c(c(N3CCCC4(CNS(=O)(=O)N4)C3)n1)CCN(c1cccc3cccc(Cl)c13)C2 (some centres unmarked)"
  assayed system: "KRas^G12V (Homo sapiens, UniProt P01116, G12V)"
  test value: "0.197 µM"
- compound: "CCc1cccc2cccc(N3CCc4c(nc(OCC56CCCN5CCC6)nc4N4CC5(CNC(=O)N5)C4)C3)c12"
  assayed system: "KRas^G12V (Homo sapiens, UniProt P01116, G12V)"
  test value: "1.42 µM"
- compound: "Oc1cc(N2CCc3c(nc(OC[C@@]45CCCN4C[C@H](F)C5)nc3N3CCOCC(n4cccn4)C3)C2)c2c(Cl)c(F)ccc2c1 (some centres unmarked)"
  assayed system: "KRas^G12V (Homo sapiens, UniProt P01116, G12V)"
  test value: "0.003 µM"
- compound: "CCc1cccc2cccc(N3CCc4c(nc(OCC56CCCN5CCC6)nc4N4CC5CC(O)CC4C5)C3)c12 (centres unmarked)"
  assayed system: "KRas^G12V (Homo sapiens, UniProt P01116, G12V)"
  test value: "0.206 µM"
